Tgt: mICE (Mus musculus)
Sequence (P29452 123-296 limits assumed): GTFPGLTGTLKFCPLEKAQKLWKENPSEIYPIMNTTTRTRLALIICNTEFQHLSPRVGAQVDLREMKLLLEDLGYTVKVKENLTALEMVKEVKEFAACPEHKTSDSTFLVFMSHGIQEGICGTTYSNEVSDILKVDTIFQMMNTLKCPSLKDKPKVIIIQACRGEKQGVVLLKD
Sequence (P29452 315-402 limits assumed): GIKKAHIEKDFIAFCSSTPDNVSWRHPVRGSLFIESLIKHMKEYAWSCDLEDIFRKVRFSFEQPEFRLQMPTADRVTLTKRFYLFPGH
Protocol Summary: Dissociation constant Ki and irreversible rate constant k3 for irreversible inhibitors, ICE
Test Parameters: continuous assay 60 min, reaction initiated by adding enzyme
Quantity: pKi
The scale used: pKi is minus the common logarithm of the concentration in molar units.

Compound: CC(C)C(NC(=O)COc1ccccc1-c1ccccc1)C(=O)NC(CC(=O)O)C(=O)CF (stereo not shown)
pKi: 6.49

Let's switch to this compound now.
q: Fill in pKi for record `CC(C)[C@H](NC(=O)COc1cccc2ccccc12)C(=O)N[C@@H](CC(=O)O)C(=O)COc1cccc(F)c1`
a: 6.35

====

Tgt: UniProt:P55212
Sequence (P55212 24-179 limits assumed): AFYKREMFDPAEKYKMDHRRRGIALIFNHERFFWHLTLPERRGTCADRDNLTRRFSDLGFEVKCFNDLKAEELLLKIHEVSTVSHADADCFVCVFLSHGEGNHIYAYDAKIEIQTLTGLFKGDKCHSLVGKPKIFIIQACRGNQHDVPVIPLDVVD
Sequence (P55212 194-293 limits assumed): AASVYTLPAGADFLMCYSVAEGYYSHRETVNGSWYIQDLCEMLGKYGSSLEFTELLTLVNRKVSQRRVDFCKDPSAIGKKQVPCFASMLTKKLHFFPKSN
Protocol Summary: Dissociation constant Ki and irreversible rate constant k3 for irreversible inhibitors, Mch2
Format: biochemical
Test Parameters: continuous assay 60 min, reaction initiated by adding enzyme
List of MCH-2 k3/Ki values.

Example results:
Compound: CC(C)C[C@H](NC(=O)COc1c(C(=O)O)ccc2ccccc12)C(=O)N[C@@H](CC(=O)O)C(=O)COc1c(F)c(F)cc(F)c1F [Example 167]
Result: 52,500 M^−1s^−1

Compound: CC(C)[C@H](NC(=O)COc1cccc2ccccc12)C(=O)N[C@@H](CC(=O)O)C(=O)COc1cc(C(F)(F)F)nn1-c1ccccc1 [Example 143]
Result: 8,500 M^−1s^−1

Compound: C[C@H](NC(=O)COc1ccccc1-c1ccccc1)C(=O)NC(CC(=O)O)C(=O)COc1c(F)c(F)cc(F)c1F (stereo partly shown) [Example 177]
Result: 21,100 M^−1s^−1

q: Quick one: give measured MCH-2 k3/Ki for CC(C)[C@H](NC(=O)COc1cccc2ccccc12)C(=O)N[C@@H](CC(=O)O)C(=O)COc1c(-c2ccccc2)oc2ccccc2c1=O [Example 115]
a: 0 M⁻¹ s⁻¹

q: For the compound CC(C)[C@H](NC(=O)COc1cccc2ccccc12)C(=O)N[C@@H](CC(=O)O)C(=O)COc1c(F)c(F)cc(F)c1F [Example 79] , give its reported MCH-2 k3/Ki.
a: 78,900 M^−1s^−1

q: Using known records, supply MCH-2 k3/Ki for CC(C)[C@H](NC(=O)COc1cccc2ccccc12)C(=O)N[C@@H](CC(=O)O)C(=O)COc1cccc(F)c1 [Example 66]
a: 48 M⁻¹ s⁻¹

q: Quickly give me recorded MCH-2 k3/Ki for CC(C)[C@H](NC(=O)COc1cccc2ccccc12)C(=O)N[C@@H](CC(=O)O)C(=O)COc1cc(F)cc(F)c1F [Example 75]
a: 1,510 M^−1s^−1

q: In one line, give reported MCH-2 k3/Ki of the entry CCCCCCP(=O)(OCC(=O)[C@H](CC(=O)O)NC(=O)[C@@H](NC(=O)COc1cccc2ccccc12)C(C)C)c1ccccc1 (stereo partly shown) [Example 106] .
a: 52,900 M^−1s^−1

q: Provide MCH-2 k3/Ki value for the following compound: CC(C)[C@H](NC(=O)COc1ccccc1-c1ccccc1)C(=O)N[C@@H](CC(=O)O)C(=O)COc1c(F)cc(F)cc1F [Example 151]
a: 88,100 M^−1s^−1

q: Hello, please tell me recorded MCH-2 k3/Ki for this one: CC(C)C[C@H](NC(=O)COc1ccccc1-c1ccccc1)C(=O)NC(CC(=O)O)C(=O)CF (mixture of isomers) [Example 57]
a: 91,000 M^−1s^−1

q: Please look at this compound and report its MCH-2 k3/Ki: CC(C)[C@H](NC(=O)COc1ccc2ccccc2c1)C(=O)N[C@@H](CC(=O)O)C(=O)COc1c(F)cc(F)cc1F [Example 156]
a: 14,900 M^−1s^−1

q: Output MCH-2 k3/Ki of CC(C)[C@H](NC(=O)COc1cccc2ccccc12)C(=O)N[C@@H](CC(=O)O)C(=O)COC(=O)c1c(Cl)cccc1Cl [Example 63]
a: 56,900 M^−1s^−1

q: Determine its reported MCH-2 k3/Ki: CC(C)[C@H](NC(=O)COc1cccc2ccccc12)C(=O)N[C@@H](CC(=O)O)C(=O)COc1ccc(F)c(F)c1F [Example 74]
a: 250 M⁻¹ s⁻¹

src = patent US7157430B2
